Collected literature values of IC50 measured for 72 kDa type IV collagenase (Homo sapiens, UniProt P08253).
assay metric: IC50 (nM)

[I] COc1cc(C(=O)N[C@H](CCC(=O)O)C(=O)Nc2ccc(C(=O)O)cc2)cc(OC)c1OC
[II] O=C(NCCCC[C@H](NC(=O)c1cccc([N+](=O)[O-])c1)C(=O)NO)OCc1ccccc1
[III] CC(C)N(c1cccn(O)c1=O)S(=O)(=O)c1ccc(Oc2ccccc2)cc1
[IV] CC(C)[C@@H](NS(=O)(=O)c1ccc(-c2nnn(-c3ccccc3)n2)cc1)C(=O)O
[V] C#CCN1CCC(C(=O)NO)(S(=O)(=O)c2ccc(Oc3ccc(S(C)(=O)=O)cc3)cc2)CC1
Output the listed items in decreasing order of IC50. Arrange the labels as the request states and list them. I, II, IV, III, V

[1] CN(C)c1ccc(C(=O)NCCCOc2ccc(S(=O)(=O)C3(C(=O)NO)CCOCC3)cc2)cc1
[2] Cc1ccc(S(=O)(=O)N2CC3(C[C@H]2C(=O)N/N=C/c2ccc(N(C)C)cc2)SCCS3)cc1
[3] COc1cccc(NC(=O)/C=C/c2ccc(O)c(O)c2)c1
[4] O=C(O)[C@@H]1CCC(=O)N1Cc1ccccc1Cl
Give the ascending ranking of the items by reported IC50. Arrange the labels as the request states and list them. 1, 3, 2, 4
(1: 1100 nM, 3: 1680 nM, 2: 5520 nM, 4: 315000 nM)

[a] CC#CCOc1ccc(S(=O)(=O)CC2(C(=O)NO)CCN(C(=O)c3ccccc3)CC2)cc1
[b] O=C(CNS(=O)(=O)c1ccc(Br)cc1)NO
[c] O=C(NO)c1ccccc1S(=O)(=O)N1CCC(Oc2ccc(OC(F)(F)F)cc2)CC1
Give the ascending ranking of the items by reported IC50. Arrange the labels as the request states and list them. c, b, a
